Test system Micrococcus luteus A270, MIC listed for each of the compounds.
The figure you give is taken to be in µM; do not add the unit.

compound | measureName | obsValue
CC[C@H](C)[C@H](N)C(=O)N[C@@H](CC(C)C)C(=O)NCC(=O)N[C@@H](CCCCN)C(=O)N[C@H](C(=O)N[C@@H](Cc1c[nH]c2ccccc12)C(=O)N[C@@H](CCC(=O)O)C(=O)N1CCC[C@H]1C(=O)N[C@H](C(=O)N[C@@H](CCCCN)C(=O)N[C@@H](CO)C(=O)N[C@@H](CC(C)C)C(=O)N[C@@H](Cc1ccccc1)C(N)=O)[C@@H](C)CC)[C@@H](C)CC [ILGKIWEPIKSLF] | MIC | 12.5
CC[C@H](C)[C@H](NC(=O)[C@H](CCCCN)NC(=O)[C@H](CCC(=O)O)NC(=O)[C@H](Cc1c[nH]c2ccccc12)NC(=O)[C@H](Cc1ccccc1)NC(=O)[C@H](CCCCN)NC(=O)CNC(=O)[C@H](CC(C)C)NC(=O)[C@H](C)N)C(=O)N[C@@H](CCCCN)C(=O)N[C@@H](CO)C(=O)N[C@@H](CC(C)C)C(=O)N[C@@H](Cc1ccccc1)C(N)=O [ALGKFWEKIKSLF] | MIC | 0.78

Request: Identify measured MIC associated with CC(C)C[C@H](NC(=O)[C@H](C)NC(=O)CNC(=O)[C@H](CC(C)C)NC(=O)[C@@H](N)Cc1ccccc1)C(=O)N[C@@H](Cc1c[nH]c2ccccc12)C(=O)N[C@@H](CC(N)=O)C(=O)N[C@H](C(=O)N[C@@H](C)C(=O)N[C@@H](CCCCN)C(=O)N[C@@H](CO)C(=O)N[C@@H](Cc1ccc(O)cc1)C(=O)N[C@@H](Cc1ccccc1)C(N)=O)C(C)C [FLGALWNVAKSYF]
Result: 0.8

Request: Supply reported MIC belonging to this compound: CC[C@H](C)[C@H](NC(=O)[C@H](CC(C)C)NC(=O)[C@H](CO)NC(=O)[C@H](CC(C)C)NC(=O)[C@H](CC(C)C)NC(=O)[C@@H](N)CO)C(=O)N[C@@H](CCCN=C(N)N)C(=O)N[C@@H](CCCCN)C(=O)N[C@@H](CC(C)C)C(=O)N[C@H](C(=O)N[C@H](C(N)=O)[C@@H](C)O)[C@@H](C)CC [SLLSLIRKLIT]
Result: 0.8

###

Please consider the recorded MIC for Salmonella enterica subsp. enterica serovar Typhimurium ATCC 14028 in what follows.
Just the number in µM, nothing appended.

structure | MIC [µM]
CC(C)C[C@H](NC(=O)[C@H](Cc1c[nH]c2ccccc12)NC(=O)CNC(=O)[C@H](CC(C)C)NC(=O)[C@@H](N)Cc1ccccc1)C(=O)N[C@@H](Cc1ccccc1)C(=O)N[C@@H](CCCCN)C(=O)N[C@@H](Cc1c[nH]c2ccccc12)C(=O)N[C@@H](C)C(=O)N[C@@H](CO)C(=O)N[C@@H](CCCCN)C(N)=O | 145

Request: // output MIC; input "CC[C@H](C)[C@H](NC(=O)[C@H](CCCCN)NC(=O)[C@H](CCCCN)NC(=O)[C@H](CCCN=C(N)N)NC(=O)[C@H](CC(C)C)NC(=O)[C@H](CCCN=C(N)N)NC(=O)[C@H](CCCN=C(N)N)NC(=O)[C@H](CC(C)C)NC(=O)[C@H](CC(C)C)NC(=O)CN)C(=O)NCC(=O)N[C@@H](CCC(=O)O)C(=O)N[C@H](C(=O)N[C@@H](Cc1ccccc1)C(=O)N[C@@H](CCCCN)C(=O)N[C@@H](CCCCN)C(=O)N[C@@H](Cc1ccc(O)cc1)C(=O)NCC(=O)O)[C@@H](C)CC" ; system Salmonella enterica subsp. enterica serovar Typhimurium ATCC 14028
Result: 1

Request: // fetch MIC; item: "CC(=O)N[C@@H](CCCCN)C(=O)N[C@@H](C)C(=O)N[C@@H](C)C(=O)N[C@@H](CCCCN)C(=O)N[C@@H](C)C(=O)N[C@@H](C)C(=O)N[C@@H](CCCCN)C(=O)N[C@@H](CCCCN)C(=O)N[C@@H](C)C(=O)N[C@@H](C)C(=O)N[C@@H](CCCCN)C(=O)N[C@@H](C)C(=O)N[C@@H](C)C(=O)N[C@@H](Cc1c[nH]c2ccccc12)C(=O)N[C@@H](CCCCN)C(N)=O" ; system: Salmonella enterica subsp. enterica serovar Typhimurium ATCC 14028
Result: 130

###

Test system: Staphylococcus aureus
measureName: MIC (µM)
The reply should contain only the number, in µM.

Request: Answer with the recorded MIC for the molecule listed here: "CC[C@H](C)[C@H](NC(=O)[C@H](CCCCN)NC(=O)[C@H](CC(C)C)NC(=O)[C@H](C)NC(=O)[C@H](CCCCN)NC(=O)[C@H](CC(C)C)NC(=O)[C@H](C)NC(=O)CNC(=O)[C@H](CCCCN)NC(=O)[C@H](C)NC(=O)[C@@H](NC(=O)[C@@H](N)CCCCN)[C@@H](C)CC)C(=O)N[C@@H](C)C(=O)N[C@@H](CCCCN)C(=O)N[C@H](C(=O)N[C@@H](C)C(=O)N[C@@H](CC(C)C)C(=O)N[C@@H](CCCCN)C(=O)N[C@@H](C)C(=O)N[C@@H](CC(C)C)C(N)=O)C(C)C"
Result: 5.66

###

Let's go through some MIC measurements on Salmonella enterica subsp. enterica serovar Typhimurium ATCC 14028 together.
// return numeric value only (unit: µM, not printed)

Worked cases, MIC given:
structure | targetOrSystem | unitSpec | MIC
CC(C)C[C@H](NC(=O)[C@H](CCCN=C(N)N)NC(=O)[C@H](CC(C)C)NC(=O)[C@H](CC(C)C)NC(=O)[C@H](CC(C)C)NC(=O)[C@H](CCCN=C(N)N)NC(=O)[C@H](CC(C)C)NC(=O)[C@H](CCCN=C(N)N)NC(=O)[C@@H](N)CCCN=C(N)N)C(=O)N[C@@H](CCCN=C(N)N)C(=O)N[C@@H](CCCN=C(N)N)C(N)=O | Salmonella enterica subsp. enterica serovar Typhimurium ATCC 14028 | µM | 4
CC[C@H](C)[C@H](NC(=O)CN)C(=O)N[C@@H](Cc1cnc[nH]1)C(=O)N[C@@H](CCCCN)C(=O)N[C@H](C(=O)N[C@@H](CC(C)C)C(=O)N[C@@H](CCCCN)C(=O)N[C@@H](Cc1ccc(O)cc1)C(=O)NCC(=O)N[C@@H](CCCCN)C(=O)N1CCC[C@H]1C(=O)N[C@@H](CO)C(N)=O)[C@@H](C)CC | Salmonella enterica subsp. enterica serovar Typhimurium ATCC 14028 | µM | 10
C[C@H](NC(=O)[C@H](C)NC(=O)[C@H](CCCCN)NC(=O)[C@H](C)NC(=O)[C@H](C)NC(=O)[C@H](C)NC(=O)[C@H](CCCCN)NC(=O)[C@H](Cc1c[nH]c2ccccc12)NC(=O)[C@@H](N)Cc1c[nH]c2ccccc12)C(=O)N[C@@H](C)C(=O)N[C@@H](CCCCN)C(=O)N[C@@H](Cc1c[nH]c2ccccc12)C(=O)N[C@@H](Cc1c[nH]c2ccccc12)C(N)=O | Salmonella enterica subsp. enterica serovar Typhimurium ATCC 14028 | µM | 8
CC[C@H](C)[C@H](NC(=O)CN)C(=O)N[C@@H](CCCCN)C(=O)N[C@@H](CCCCN)C(=O)N[C@H](C(=O)N[C@@H](CC(C)C)C(=O)N[C@@H](CCCCN)C(=O)N[C@@H](Cc1ccc(O)cc1)C(=O)NCC(=O)N[C@@H](CCCCN)C(=O)N[C@@H](CCCCN)C(=O)N[C@@H](CO)C(N)=O)[C@@H](C)CC | Salmonella enterica subsp. enterica serovar Typhimurium ATCC 14028 | µM | 20
CC[C@H](C)[C@H](NC(=O)[C@H](CCCN=C(N)N)NC(=O)[C@H](C)NC(=O)[C@H](C)N)C(=O)N[C@H](C(=O)N[C@@H](CC(C)C)C(=O)N[C@@H](CCCN=C(N)N)C(=O)N[C@H](C(=O)N[C@@H](CCCN=C(N)N)C(=O)N[C@@H](Cc1ccccc1)C(=O)N[C@@H](CCCN=C(N)N)C(N)=O)[C@@H](C)O)[C@@H](C)CC | Salmonella enterica subsp. enterica serovar Typhimurium ATCC 14028 | µM | 16
CC(C)C[C@H](NC(=O)[C@H](CC(C)C)NC(=O)[C@H](CCCCN)NC(=O)[C@H](CCCCN)NC(=O)[C@H](CC(C)C)NC(=O)[C@H](Cc1c[nH]c2ccccc12)NC(=O)[C@H](CCCCN)NC(=O)[C@H](CC(C)C)NC(=O)[C@@H](N)CC(C)C)C(=O)N[C@@H](CCCCN)C(=O)N[C@@H](CCCCN)C(N)=O | Salmonella enterica subsp. enterica serovar Typhimurium ATCC 14028 | µM | 2.84

Request: Report MIC on Salmonella enterica subsp. enterica serovar Typhimurium ATCC 14028 for this entry: "CC(C)C[C@H](NC(=O)[C@@H]1CCCN1C(=O)[C@H](CCCN=C(N)N)NC(=O)[C@H](CC(C)C)NC(=O)[C@H](CC(C)C)NC(=O)[C@@H]1CCCN1C(=O)[C@H](CCCN=C(N)N)NC(=O)[C@H](CC(C)C)NC(=O)[C@H](CC(C)C)NC(=O)[C@@H]1CCCN1C(=O)[C@H](CCCN=C(N)N)NC(=O)[C@H](CC(C)C)NC(=O)[C@H](CC(C)C)NC(=O)[C@@H]1CCCN1C(=O)[C@H](CCCN=C(N)N)NC(=O)[C@@H](N)CC(C)C)C(N)=O"
Result: 32
